Tested on: cultured human mast cells (CHMC)
Experimental details: CHMC low cell density ionomycin activation: tryptase assay
Assay type: cell-based
Condition details: Homo sapiens, Mast cell, low cell density CHMC, tryptase readout, 3 pt, read-out: LD Tryptase, CHMC, Iono, 3 pt
Some molecules, each annotated with its measured IC50.

Solved cases below.
CC1(C)Oc2ccc(Nc3nc(Nc4cccc(-c5cnco5)c4)ncc3F)cc2NC1=O    > 10 µM
CN1C(=O)C(C)(C)Oc2ccc(N(C)c3nc(Nc4cccc(-c5ncco5)c4)ncc3F)cc21    < 10 µM
Cc1cc(C)cc(Nc2ncc(F)c(Nc3cccc(NC4=NCCN4)c3)n2)c1    > 10 µM
CC1(C)Oc2ccc(Nc3nc(Nc4ccc(-c5ncco5)cc4)ncc3F)cc2NC1=O    > 10 µM
CN1CCN(c2ccc(Nc3ncc(F)c(Nc4cccc(NC5=NCCN5)c4)n3)cc2)CC1    > 10 µM
CCOC(=O)N1CCN(c2cccc(Nc3ncc(F)c(Nc4cccc(NC5=NCCN5)c4)n3)c2)CC1    > 10 µM
CCOC(=O)c1cc2cccc(Nc3ncc(F)c(NC4CCC4)n3)c2[nH]1    < 10 µM
CN1CCN(c2ccc(Nc3ncc(F)c(Nc4cc(C(C)(C)C)[nH]n4)n3)cc2)CC1    > 10 µM

Now for the molecule whose IC50 we want.
Please list IC50 recorded for the molecule "CN1C(=O)C(C)(C)Oc2ccc(N(C)c3nc(Nc4cccc(-c5cocn5)c4)ncc3F)cc21"
< 10 µM
